Each entry below carries its recorded growth.
# Tested on: SW-620 colon
# protocol: NCI-60 one-dose screen, 48 h (100 = growth as untreated, 0 = no growth, -100 = all killed)
# test_conditions: 10 µM unless noted
About 83,000 compounds went through this panel and 20% of them were active in at least one assay; those are over-represented in the sample as a whole.

substance_smiles	growth (%)
FC(F)(F)c1ccc(CNc2ccc(Cc3c[nH]c4ncc(Cl)cc34)cn2)cn1	19
Cc1cccc(Cl)c1NC(=O)c1cnc(Nc2cc(N3CCOCC3)cc(N3CCOCC3)c2)s1	82.2
O=C(/C=C/c1ccc2c(c1)OCO2)c1c(O)c2ccccc2oc1=O	128
O=c1[nH]c([C@@H]2CCCN2)nc2c1oc1ccc(Cl)cc12	22.7
Cc1sc2c(c1C)c(=O)nc1c(-c3nc4ccccc4s3)n[nH]n12	104
CNC(=O)c1cc(Oc2ccc(NC(=O)Nc3cc(C(C)(C)C)nn3-c3ccc4ncccc4c3)c(F)c2)ccn1	-0.427
NS(=O)(=O)c1ccc(CCN2C(=O)/C(=C\c3ccc(Cl)cc3)C=C2c2ccc3ccccc3c2)cc1	106
CC[C@@H]1C(=O)N(C)c2cnc(Nc3ccc(C(=O)NC4CCN(C)CC4)cc3OC)nc2N1C1CCCC1	12.3
COCC(=O)NC/C=C/c1ccc2ncnc(Nc3ccc(Oc4ccc(C)nc4)c(C)c3)c2c1	47.9
Nc1c(C(=O)c2ccccc2)sc2nc(-c3cccs3)ccc12	28.4

* * *

# Test system: UACC-257 melanoma
# protocol: NCI-60 one-dose screen, 48 h
# test_conditions: 10 µM unless noted
The panel holds about 83,000 compounds, 20% with a hit somewhere; the sample as a whole holds those more often. Activity calls are given as the source filed them. How the source made its calls: active means growth percent below 10; inactive means the rest.
Outcome codes: active, inactive

substance_smiles	assigned_category
Cc1ccc(F)c(NC(=O)Nc2ccc(-c3cccc4[nH]nc(N)c34)cc2)c1	inactive
O=C(O)c1ccc(Nc2ncc3c(n2)-c2ccc(Cl)cc2C(c2c(F)cccc2F)=NC3)cc1	inactive
COc1cc2c(Nc3ccc(Br)cc3F)ncnc2cc1OCC1CCN(C)CC1	active
CCCCCC(=O)OCc1ccc(Cl)c(Cl)c1	inactive
Cc1ccc(C(=O)Nc2ccc(CN3CCN(C)CC3)c(C(F)(F)F)c2)cc1C#Cc1cnc2cccnn12	active
O=C(Cc1ccc(-c2ccc(OCCN3CCOCC3)cc2)cn1)NCc1ccccc1	active
Nc1nc(N)c2nc(-c3cccc(O)c3)c(-c3cccc(O)c3)nc2n1	inactive
Cc1cc(Nc2nc(N[C@@H](C)c3ncc(F)cn3)ncc2Cl)n[nH]1	inactive
CN[C@@H]1C[C@H]2O[C@@](C)([C@@H]1OC)n1c3ccccc3c3c4c(c5c6ccccc6n2c5c31)C(=O)N[C@H]4O	active
CCCNC(=O)c1cn2ncnc(Nc3cc(C(=O)NC4CC4)ccc3C)c2c1C	inactive

* * *

# Test system: MCF7 breast
# protocol: NCI-60 one-dose screen, 48 h
# test_conditions: 10 µM unless noted
About 83,000 compounds went through this panel and 20% of them were active in at least one assay; those are over-represented in the sample as a whole. The source made the active and inactive calls. The calls were made as follows: active = growth percent below 10; inactive = the rest.
Classes used: active, inactive

compound	target_entity	assigned_category
CC#CC(=O)N1CCC[C@H]1c1nc(-c2ccc(C(=O)Nc3ccccn3)cc2)c2c(N)nccn12	MCF7 breast	inactive
CNC(=O)c1ccc(Nc2ncc(C(F)(F)F)c(NCc3nccnc3N(C)S(C)(=O)=O)n2)cc1	MCF7 breast	active
CN(c1ncccc1CNc1nc(Nc2ccc3c(c2)CC(=O)N3)ncc1C(F)(F)F)S(C)(=O)=O	MCF7 breast	active
COc1cc2c(cc1OCCCCCCN1CCN(c3ncnc4ccccc34)CC1)N=CC1CCCN1C2=O (centres undefined)	MCF7 breast	inactive
COC(=O)[C@]12CC[C@@H](C)[C@H](C)[C@@H]1C1=CC[C@@H]3[C@@]4(C)C(C#N)=CC(C)=C4CC[C@@]3(C)[C@]1(C)CC2	MCF7 breast	inactive
COc1cc(C2CC(c3ccc(Cl)cc3)=NN2c2ccc(Cl)cc2)cc(OC)c1OC (centres undefined)	MCF7 breast	inactive
COc1ccc(-c2cnc(-c3ccc(Cl)cc3)[nH]2)cc1OC	MCF7 breast	inactive
CC(CCCC(=O)O)c1ccoc1 (centres undefined)	MCF7 breast	inactive
COc1ccc(C(=O)c2cc(OC)c(OC)c(OC)c2)cc1/C=C/C(=O)c1ccc(F)cc1	MCF7 breast	inactive

* * *

# Tested on: NCI/ADR-RES ovarian
# protocol: NCI-60 one-dose screen, 48 h (100 = growth as untreated, 0 = no growth, -100 = all killed)
# test_conditions: 10 µM unless noted
About 83,000 compounds went through this panel and 20% of them were active in at least one assay; those are over-represented in the sample as a whole.

molecule	unit_tag	growth
O=C1CC(c2ccc3c(c2)OCO3)c2ncn(-c3ccc(Cl)cc3)c2N1 (stereo not given)	%	14
CCCCCc1ccc(C)cc1OC(=O)CCl	%	111
O=C1NC(=O)[C@@H](c2cn3c4c(cccc24)CCC3)[C@@H]1c1c[nH]c2ccccc12	%	9.44
Cn1ccnc1C(=O)/C=C/c1ccc(CC(=O)Nc2ccc(S(F)(F)(F)(F)F)cc2)cc1	%	7.59
CN1CC[C@H](c2c(O)cc(O)c3c(=O)cc(-c4ccccc4Cl)oc23)[C@H](O)C1	%	2.07

* * *

# Test system: DU-145 prostate
# protocol: NCI-60 one-dose screen, 48 h
# test_conditions: 10 µM unless noted
# Experimental: Cells are grown in 96 well plates and exposed to the test compound for 48 hours. Compounds are tested at a single concentration, which is 10^-5 M for most compounds. The reported endpoint is percent growth (GI% or GIPRCNT), where numbers from 0 - 100% represent growth inhibition, and numbers from -100% - 0 represent cell death. For example, a value of 40 represents 60% growth inhibition. A value of 0 means no net growth occurred over the course of the experiment. […]
The panel holds about 83,000 compounds, 20% with a hit somewhere; the sample as a whole holds those more often. Activity calls are given as the source filed them. How the source made its calls: active means growth percent below 10; inactive means the rest.
Labels: active, inactive

compound	assigned_category
CCCCCCCC12Cc3ccccc3C1=Nc1c(c3ccccc3n1C)C2=O (configuration not stated)	inactive
Nc1ccc(S(=O)(=O)O)c2cc(S(=O)(=O)O)cc(O)c12	inactive
CO[C@H]1C[C@@H]2CC[C@@H](C)[C@@](O)(O2)C(=O)C(=O)N2CCCC[C@H]2C(=O)O[C@H]([C@H](C)C[C@@H]2CC[C@@H](O)[C@H](OC)C2)CC(=O)[C@H](C)/C=C(\C)[C@@H](O)[C@@H](OC)C(=O)[C@H](C)C[C@H](C)\C=C/C=C/C=C/1C	inactive
COc1cc(OC)c(/C=C/S(=O)(=O)Cc2ccc(OC)c(NCC(=O)O)c2)c(OC)c1	active
COc1cc2c(cc1O)c(=O)n(CCN(C)C)c1c3cc4c(cc3ncc21)OCO4	active
CCNCCNc1cc(-c2ccc(Cl)c(Cl)c2)c(C#N)c2nc3ccccc3n12	active
CC/C=C\C[C@H]1C/C=C2/C(=O)C=C[C@@H]2C/C=C\CCCC(=O)O1	active
CCNC(=O)C#Cc1ccc2c(C(=Nc3ccc(CN(C)C)cc3)c3ccccc3)c(O)[nH]c2c1	inactive
Cc1cc2c(-c3nc4ccccn4c3NC3CCCCC3)c(O)c(O)cc2c(O)c1-c1c(C)cc2c(-c3nc4ccccn4c3NC3CCCCC3)c(O)c(O)cc2c1O	inactive
COc1cc2ncnc(Nc3ccc(O)cc3)c2cc1OC	inactive
CS(=O)(=O)CCNCc1ccc(-c2ccc3ncnc(Nc4ccc(OCc5cccc(F)c5)c(Cl)c4)c3c2)o1	inactive
CN1CCN(CCOc2cc(OC3CCOCC3)c3c(Nc4c(Cl)ccc5c4OCO5)ncnc3c2)CC1	inactive
CCc1nc(C(N)=O)c(Nc2ccc(N3CCC(N4CCN(C)CC4)CC3)c(OC)c2)nc1NC1CCOCC1	inactive
CC(=O)Nc1cccc(-n2c(=O)n(C3CC3)c(=O)c3c(Nc4ccc(I)cc4F)n(C)c(=O)c(C)c32)c1	inactive
CN1CCC(COc2cnc(-c3cccc(Cn4nc(-c5cccc(C#N)c5)ccc4=O)c3)nc2)CC1	inactive
NS(=O)(=O)c1ccc(CCN2C(=O)/C(=C\c3ccc(Cl)cc3)C=C2c2ccc3ccccc3c2)cc1	inactive
CC/C(=C(\c1ccc(OCCN2CCCCCCC2)cc1)c1ccc(OC(=O)C2CCCCC2)cc1)c1ccc(Cl)cc1	inactive

* * *

# Tested on: HT29 colon
# protocol: NCI-60 one-dose screen, 48 h (100 = growth as untreated, 0 = no growth, -100 = all killed)
# test_conditions: 10 µM unless noted
About 83,000 compounds went through this panel and 20% of them were active in at least one assay; those are over-represented in the sample as a whole. Calls of active or inactive are those of the source. Rule for the calls: active = growth percent below 10; inactive = the rest.

molecule	growth
C=C1CC[C@@H]2[C@](C)(COC(C)=O)[C@H](OC(C)=O)CC[C@@]2(C)[C@@H]1C/C=C1/C(=O)OC[C@H]1OC(C)=O	-39.4% (active)
O=C(Nc1cccc(Cl)c1)Nc1ncc(CCNc2ncnc3ccsc23)s1	19.7% (inactive)
Cc1nc(N)sc1-c1ccnc(Nc2ccc(N3CCOCC3)cc2)n1	25.5% (inactive)
Cc1oc2c(C(=O)N/N=C\c3ccc(O)cc3O)c[nH]c2c1C	25.6% (inactive)
CC1(C=O)NC(=O)NC1=O (stereo not given)	99.2% (inactive)
COc1cccc(Nc2ncnn3ccc(CN4CC[C@@H](N)[C@H](O)C4)c23)c1	27.1% (inactive)
COC(=O)[C@]12CC[C@@H](C)[C@H](C)[C@@H]1C1=CC[C@@H]3[C@@]4(C)C[C@@H](OC(=O)/C=C/c5ccccc5)[C@H](O)[C@@](C)(CO)[C@@H]4[C@H](O)C[C@@]3(C)[C@]1(C)CC2	-49.3% (active)
C[C@@H](NC(=O)c1ncnc(N)c1Cl)c1ncc(C(=O)Nc2cc(C(F)(F)F)c(Cl)cn2)s1	20.1% (inactive)
CNC(=O)CN1CCC(Oc2cc3c(Nc4cccc(Cl)c4F)ncnc3cc2OC)CC1	36.8% (inactive)
COc1ccc2c(CCCc3ccc(Cl)cc3Cl)c3[n+](cc2c1OC)CCc1cc2c(cc1-3)OCO2	-15.6% (active)

// provenance: PubChem BioAssay (NCI)
